Taken from paper PMC6452685.

Test system: P. vivax liver schizonts/hypnozoites
Assay: P. vivax liver schizonts/hypnozoites (prophylactic mode)
Type: cell-based
Settings: Plasmodium vivax, liver schizonts, read-out: P. vivax liver schizonts EC50 (prophylactic mode)
readout_type: EC50 (nM)
Quick reminder: number only, in nM, skip the unit.

What the record says about O=C(NCC1(O)CCC(F)(F)CC1)c1cc(=O)c2cc(F)ccc2o1 : EC50 is 950

---

Target: PfKRS1 (Plasmodium falciparum)
Sequence (Q8IDJ8 77-583): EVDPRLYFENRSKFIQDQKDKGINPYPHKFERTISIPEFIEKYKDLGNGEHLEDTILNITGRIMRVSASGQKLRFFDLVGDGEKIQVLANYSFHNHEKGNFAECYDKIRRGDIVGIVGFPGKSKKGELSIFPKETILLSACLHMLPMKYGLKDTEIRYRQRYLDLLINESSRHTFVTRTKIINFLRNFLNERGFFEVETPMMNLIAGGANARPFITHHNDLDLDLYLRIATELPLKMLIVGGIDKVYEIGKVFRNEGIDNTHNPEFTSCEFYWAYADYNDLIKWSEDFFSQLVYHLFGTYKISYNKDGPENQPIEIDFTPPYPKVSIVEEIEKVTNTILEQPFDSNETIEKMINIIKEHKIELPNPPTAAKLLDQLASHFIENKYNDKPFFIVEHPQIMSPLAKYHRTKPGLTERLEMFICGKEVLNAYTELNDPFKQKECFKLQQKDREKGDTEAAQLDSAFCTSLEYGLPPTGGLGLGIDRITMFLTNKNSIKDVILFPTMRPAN
Assay: Recombinant KRS thermal shift assay, PfKRS1
Type: binding
Set-up: recombinant PfKRS1 (77–583 and 80–583); 6xHis (N); made in house; host or cells: E. coli Rosetta BL21(DE3), vector pAVA0421
Conditions: read-out: ΔTm PfKRS, ATP; 40 µM inhibitor
readout_type: ΔTm at 40 µM (°C)
Quick reminder: number only, in °C, skip the unit.

For orientation, consider the following solved cases.
>>> print(df.to_string())
                                   compound  observed_measurement
0  O=C(NCC1(O)CCCCC1)c1cc(=O)c2cc(F)ccc2o1 [Compound 4]                   0.5
1  O=C(NCC1CCCCC1)c1cc(=O)c2cc(F)ccc2o1 [Compound 3]                   0.2
2  O=C(NCC1(O)CCC(F)(F)CC1)c1cc(=O)c2cc(F)ccc2o1 [Compound 5]                   0.9

Next up:
Here O=C(NCC1CCCCC1)c1cc(=O)c2ccccc2o1 [Compound 2] was tested on PfKRS1 (Plasmodium falciparum), and its ΔTm at 40 µM came to 0.9

---

Assay: In vivo pharmacokinetics in mouse
Conditions: female, Balb/c, whole blood, iv, intravenously, 3 mg/kg, read-out: Mouse PK intravenously AUC (converted)
readout_type: AUC (ng·h/mL)
Quick reminder: number only, in ng·h/mL, skip the unit.

What the record says about O=C(NCC1(O)CCC(F)(F)CC1)c1cc(=O)c2cc(F)ccc2o1 : AUC is 14800

---

Experiment: In vivo pharmacokinetics in mouse
Details: female, Balb/c, whole blood, iv, intravenously, 3 mg/kg, read-out: Mouse PK intravenously Vdss
Source text: 5. In vi vo pharmacokinetic and efficacy studies 5.1 In viv o ph armacokinetics (Dundee) The l ev el of each comp ound i n mouse bl ood was determi ned by UPLC -MS/MS as previously re port e d (18). Pharmacokinetic parameters were derived from the blood c oncent ration time curve usi ng PKsol uti ons software v 2.0 (Summi t Research Servi ces, USA). […]
readout_type: Vd

What the record says about O=C(NCC1(O)CCC(F)(F)CC1)c1cc(=O)c2cc(F)ccc2o1 [Compound 5] : Vd is 1 L/kg

---

Test: In vivo pharmacokinetics in mouse
Details: female, BALB/c, whole blood, po, orally, 10 mg/kg, read-out: Mouse PK orally AUC0–1440
readout_type: AUC(0-t)

What the record says about O=C(NCC1(O)CCC(F)(F)CC1)c1cc(=O)c2cc(F)ccc2o1 : AUC(0-t) is 21700 to 50000 ng·h/mL

---

Target: HsKRS (Homo sapiens, UniProt Q15046)
Construct: HsKRS (full-length) proteins; 6xHis (N); made in house; host or cells: E. coli Rosetta BL21(DE3), vector pAVA0421 (UW); template pET28a-KRS
Sequence (Q15046 whole entry): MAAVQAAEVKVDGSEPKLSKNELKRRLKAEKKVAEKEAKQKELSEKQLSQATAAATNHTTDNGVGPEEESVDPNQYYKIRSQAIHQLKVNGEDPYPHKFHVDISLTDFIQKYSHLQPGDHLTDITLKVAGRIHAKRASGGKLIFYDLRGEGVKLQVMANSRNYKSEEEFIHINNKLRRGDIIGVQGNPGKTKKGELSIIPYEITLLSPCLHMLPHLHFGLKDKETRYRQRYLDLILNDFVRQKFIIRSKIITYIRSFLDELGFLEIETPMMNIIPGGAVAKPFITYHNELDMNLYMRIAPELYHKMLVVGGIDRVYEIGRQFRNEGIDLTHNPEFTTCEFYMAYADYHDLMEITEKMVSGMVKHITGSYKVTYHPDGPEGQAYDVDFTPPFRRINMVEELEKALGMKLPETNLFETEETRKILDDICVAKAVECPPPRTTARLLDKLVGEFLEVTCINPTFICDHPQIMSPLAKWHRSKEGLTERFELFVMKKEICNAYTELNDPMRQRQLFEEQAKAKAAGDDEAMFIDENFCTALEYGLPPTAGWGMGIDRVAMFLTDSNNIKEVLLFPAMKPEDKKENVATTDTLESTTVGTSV
Test: Recombinant KRS thermal shift assay, HsKRS
Format: binding
Details: ATP; 40 µM inhibitor
Method: 2.9 Recombin ant KR S thermal shift assays ( UW) […] Us i ng a StepOne Pl us RT-PCR thermal cycler (Ap plied Biosystems) to monitor fluorescence at a n excitation/emission wavelength of 300/470-570 nm, the samples were heated from 25° C to 99° C at a ramp rate of .016° C/sec. […]
Below, each entry is listed alongside its reported ΔTm at 40 µM.
Quick reminder: number only, in °C, skip the unit.

For orientation, consider the following solved cases.
                                   molecule  observed_measurement
0      O=C(NCC1CCCCC1)c1cc(=O)c2cc(F)ccc2o1                   0.4
1   O=C(NCC1(O)CCCCC1)c1cc(=O)c2cc(F)ccc2o1                  -0.1
2  C[C@H]1CCC[C@H](C[C@H]2Cc3cc(O)cc(O)c3C(=O)O2)O1 [Compound 1, cladosporin, reference compound]                   0.3
3  O=C(NCC1(O)CCC(F)(F)CC1)c1cc(=O)c2cc(F)ccc2o1                   0.4

What the record says about O=C(NCC1CCCCC1)c1cc(=O)c2ccccc2o1 : ΔTm at 40 µM is 0.3
